From: patent US8133849B2

Exercise: for every item that follows, state its recorded SOLNI damage score (10=total damage to plant; 0=no damage to plant).
# System: Solanum nigrum
# Protocol Text: Example B2 herbicidal action, post-emergence, pots in glasshouse, damage score 0-10
# Assay type: in vivo
# Condition Description: application post-emergence, rate 1000 g/ha, evaluated after 13 days
Give a plain numeric answer without units written out.

Form field SOLNI damage score (10=total damage to plant; 0=no damage to plant), entry COCN1c2nccnc2C(OC(=O)C(C)(C)C)=C(c2ccccc2SC(F)(F)F)S1(=O)=O [Compound C23] : 6

Looking up CCN1c2nccnc2C(O)=C(c2c(Cl)ccc(Cl)c2Cl)S1(=O)=O [Compound D36] , I see its SOLNI damage score (10=total damage to plant; 0=no damage to plant) listed as 10

For reference, reported SOLNI damage score (10=total damage to plant; 0=no damage to plant) for CS(=O)(=O)OC1=C(c2cc(C(F)(F)F)ccc2Cl)S(=O)(=O)N(CC(F)F)c2nccnc21 [Compound C83] stands at 10

Looking up CC(C)C(=O)OC1=C(c2ccc(Cl)cc2Cl)S(=O)(=O)N(CC(F)(F)C(F)F)c2nccnc21 [Compound C122] , I see its SOLNI damage score (10=total damage to plant; 0=no damage to plant) listed as 9

Entry CCN1c2nccnc2C(OC(=O)C(C)(C)C)=C(c2c(F)ccc(Cl)c2Cl)S1(=O)=O [Compound C16] ; SOLNI damage score (10=total damage to plant; 0=no damage to plant) = 10

Documented SOLNI damage score (10=total damage to plant; 0=no damage to plant) of CC(C)(C)C(=O)OC1=C(c2cc(C(F)(F)F)ccc2Cl)S(=O)(=O)N(CC(F)F)c2nccnc21 [Compound C34] : 9

Item: CCN1c2nccnc2C(O)=C(c2ccccc2C(F)(F)F)S1(=O)=O [Compound D33] | SOLNI damage score (10=total damage to plant; 0=no damage to plant): 10

# molecule CC(C)C(=O)OC1=C(c2cc(Cl)ccc2C(F)(F)F)S(=O)(=O)N(CC(F)F)c2nccnc21 [Compound C113] ; its SOLNI damage score (10=total damage to plant; 0=no damage to plant) = 10

Note to self: SOLNI damage score (10=total damage to plant; 0=no damage to plant) recorded for O=S1(=O)C(c2cc(Cl)ccc2C(F)(F)F)=C(O)c2nccnc2N1CC(F)F [Compound D53] was 10

Lab note: CCN1c2nccnc2C(OC(=O)C(C)C)=C(c2ccccc2[N+](=O)[O-])S1(=O)=O [Compound C67] gave SOLNI damage score (10=total damage to plant; 0=no damage to plant) of 1

The recorded SOLNI damage score (10=total damage to plant; 0=no damage to plant) for C=CCN1c2nccnc2C(OC(=O)SCC)=C(c2cc(Cl)ccc2C(F)(F)F)S1(=O)=O [Compound C119] is 6

Form: molecule = CC(C)C(=O)OC1=C(c2c(F)ccc(Cl)c2Cl)S(=O)(=O)N(CC(F)F)c2nccnc21 [Compound C36] ; SOLNI damage score (10=total damage to plant; 0=no damage to plant) = 9

What the record says about CCN1c2nccnc2C(O)=C(c2c(C(F)(F)F)cccc2C(F)(F)F)S1(=O)=O [Compound D43] : SOLNI damage score (10=total damage to plant; 0=no damage to plant) is 8

// field: SOLNI damage score (10=total damage to plant; 0=no damage to plant); key: CCN1c2nccnc2C(O)=C(c2ccccc2SC(F)(F)F)S1(=O)=O [Compound D7] ; value = 5

// field: SOLNI damage score (10=total damage to plant; 0=no damage to plant); key: CCN1c2nccnc2C(OC(=O)C(C)(C)C)=C(c2cc(C(F)(F)F)ccc2Br)S1(=O)=O [Compound C69] ; value = 6

Recorded SOLNI damage score (10=total damage to plant; 0=no damage to plant) (molecule C#CCN1c2nccnc2C(OC(=O)C(C)C)=C(c2c(Cl)ccc(Cl)c2C(F)(F)F)S1(=O)=O [Compound C84] ): 10

SOLNI damage score (10=total damage to plant; 0=no damage to plant) in this record for CC(C)C(=O)OC1=C(c2ccccc2C(F)(F)F)S(=O)(=O)N(CCCl)c2nccnc21 [Compound C121] : 5

Short answer for CCSC(=O)OC1=C(c2cc(F)c(Cl)cc2Cl)S(=O)(=O)N(CC(F)F)c2nccnc21 [Compound C88] : SOLNI damage score (10=total damage to plant; 0=no damage to plant) was 9

CCN1c2nccnc2C(O)=C(c2cc(C(F)(F)F)ccc2C(F)(F)F)S1(=O)=O [Compound D24] has a reported SOLNI damage score (10=total damage to plant; 0=no damage to plant) of 10

Memo: O=S1(=O)C(c2cc(C(F)(F)F)ccc2C(F)(F)F)=C(O)c2nccnc2N1CC(F)F [Compound D22] , reported SOLNI damage score (10=total damage to plant; 0=no damage to plant): 10

The molecule CCN1c2nccnc2C(OC(=O)C(C)(C)C)=C(c2c(Cl)cccc2C(F)(F)F)S1(=O)=O [Compound C17] showed SOLNI damage score (10=total damage to plant; 0=no damage to plant) equal to 9

Reported SOLNI damage score (10=total damage to plant; 0=no damage to plant) of CC(C)(C)C(=O)OC1=C(c2cc(-c3cccc(Cl)c3)ccc2Cl)S(=O)(=O)N(CC(F)F)c2nccnc21 [Compound C56] : 2

Kindly note the recorded SOLNI damage score (10=total damage to plant; 0=no damage to plant) for COc1ccc(Cl)c(C2=C(O)c3nccnc3N(CC(F)F)S2(=O)=O)c1F [Compound D60] , which is 7

Item: CC(C)C(=O)OC1=C(c2cc(C(F)(F)F)ccc2Cl)S(=O)(=O)N(C)c2nccnc21 [Compound C90] | SOLNI damage score (10=total damage to plant; 0=no damage to plant): 10

Measured SOLNI damage score (10=total damage to plant; 0=no damage to plant), C#CCN1c2nccnc2C(OC(=O)C(C)(C)C)=C(c2c(Cl)ccc(Cl)c2C(F)(F)F)S1(=O)=O [Compound C86] : 6

# SOLNI damage score (10=total damage to plant; 0=no damage to plant) (molecule: CSC(=O)OC1=C(c2ccc(Br)cc2C(F)(F)F)S(=O)(=O)N(CC(F)F)c2nccnc21 [Compound C133] ) is 10

Value of measured SOLNI damage score (10=total damage to plant; 0=no damage to plant) for the entry CS(=O)(=O)OC1=C(c2cc(C(F)(F)F)ccc2Cl)S(=O)(=O)N(CC(F)F)c2nccnc21 [Compound C95] : 9

Notebook: CC(C)(C)C(=O)OC1=C(c2c(Cl)cccc2C(F)(F)F)S(=O)(=O)N(CC(F)F)c2nccnc21 [Compound C31] , SOLNI damage score (10=total damage to plant; 0=no damage to plant) read as 9

Recorded SOLNI damage score (10=total damage to plant; 0=no damage to plant) (molecule COCN1c2nccnc2C(OC(=O)C(C)C)=C(c2ccc(Cl)cc2Cl)S1(=O)=O [Compound C27] ): 9

The measured SOLNI damage score (10=total damage to plant; 0=no damage to plant) associated with CC(C)(C)C(=O)OC1=C(c2cc(C(F)(F)F)ccc2C(F)(F)F)S(=O)(=O)N(CC(F)F)c2nccnc21 [Compound C44] reads 10

Measured SOLNI damage score (10=total damage to plant; 0=no damage to plant), CC(C)C(=O)OC1=C(c2c(Cl)ccc(Cl)c2Cl)S(=O)(=O)N(CC(F)F)c2nccnc21 [Compound C38] : 10
